method_description: Oral bioavailability in Han Wistar rat plasma at 1 mg/kg, measured for 1 to 24 hrs by LC-MS/MS analysis
Type: ADME, organism-based
condition_summary: in vivo, time 1-24 hrs
Measured F by item
experimental_endpoint: F (%)

compound: C[C@@H](c1ccc(F)cc1)n1cc(-c2cc(F)cc3cn[nH]c23)c(=O)[nH]c1=O
experimental_endpoint: F
units_label: %
numeric_value: 57
--
compound: C#Cc1n[nH]c2c(-c3cn(C(C)c4ccccc4)c(=O)[nH]c3=O)cc(F)cc12 (centres undefined)
experimental_endpoint: F
units_label: %
numeric_value: 100
--
compound: C[C@@H](c1ccc(F)cc1)n1cc(-c2cc(F)cc3c(C#N)n[nH]c23)c(=O)[nH]c1=O
experimental_endpoint: F
units_label: %
numeric_value: 96
--
compound: C#Cc1n[nH]c2c(-c3cn(C(C)c4ccccn4)c(=O)[nH]c3=O)cc(F)cc12 (centres undefined)
experimental_endpoint: F
units_label: %
numeric_value: 91

---

method_description: Ratio of drug concentration in brain to plasma of Han Wistar rat plasma at 2 micromol/kg per hour measured after 4 hrs by LC-MS/MS analysis
Type: ADME
condition_summary: dose 2 µmol/kg

compound: C#Cc1n[nH]c2c(-c3cn(C(C)c4ccccc4)c(=O)[nH]c3=O)cc(F)cc12 (centres undefined)
K(p,uu,brain): 0.1

compound: C#Cc1n[nH]c2c(-c3cn(C(C)c4ccccn4)c(=O)[nH]c3=O)cc(F)cc12 (centres undefined)
K(p,uu,brain): 0.022

compound: C[C@@H](c1ccc(F)cc1)n1cc(-c2cc(F)cc3c(C#N)n[nH]c23)c(=O)[nH]c1=O
K(p,uu,brain): 0.014

compound: C[C@@H](c1ccc(F)cc1)n1cc(-c2cc(F)cc3cn[nH]c23)c(=O)[nH]c1=O
K(p,uu,brain): 0.11

---

target: Hepatocyte growth factor receptor (Homo sapiens, UniProt P08581)
Sequence (P08581 whole entry): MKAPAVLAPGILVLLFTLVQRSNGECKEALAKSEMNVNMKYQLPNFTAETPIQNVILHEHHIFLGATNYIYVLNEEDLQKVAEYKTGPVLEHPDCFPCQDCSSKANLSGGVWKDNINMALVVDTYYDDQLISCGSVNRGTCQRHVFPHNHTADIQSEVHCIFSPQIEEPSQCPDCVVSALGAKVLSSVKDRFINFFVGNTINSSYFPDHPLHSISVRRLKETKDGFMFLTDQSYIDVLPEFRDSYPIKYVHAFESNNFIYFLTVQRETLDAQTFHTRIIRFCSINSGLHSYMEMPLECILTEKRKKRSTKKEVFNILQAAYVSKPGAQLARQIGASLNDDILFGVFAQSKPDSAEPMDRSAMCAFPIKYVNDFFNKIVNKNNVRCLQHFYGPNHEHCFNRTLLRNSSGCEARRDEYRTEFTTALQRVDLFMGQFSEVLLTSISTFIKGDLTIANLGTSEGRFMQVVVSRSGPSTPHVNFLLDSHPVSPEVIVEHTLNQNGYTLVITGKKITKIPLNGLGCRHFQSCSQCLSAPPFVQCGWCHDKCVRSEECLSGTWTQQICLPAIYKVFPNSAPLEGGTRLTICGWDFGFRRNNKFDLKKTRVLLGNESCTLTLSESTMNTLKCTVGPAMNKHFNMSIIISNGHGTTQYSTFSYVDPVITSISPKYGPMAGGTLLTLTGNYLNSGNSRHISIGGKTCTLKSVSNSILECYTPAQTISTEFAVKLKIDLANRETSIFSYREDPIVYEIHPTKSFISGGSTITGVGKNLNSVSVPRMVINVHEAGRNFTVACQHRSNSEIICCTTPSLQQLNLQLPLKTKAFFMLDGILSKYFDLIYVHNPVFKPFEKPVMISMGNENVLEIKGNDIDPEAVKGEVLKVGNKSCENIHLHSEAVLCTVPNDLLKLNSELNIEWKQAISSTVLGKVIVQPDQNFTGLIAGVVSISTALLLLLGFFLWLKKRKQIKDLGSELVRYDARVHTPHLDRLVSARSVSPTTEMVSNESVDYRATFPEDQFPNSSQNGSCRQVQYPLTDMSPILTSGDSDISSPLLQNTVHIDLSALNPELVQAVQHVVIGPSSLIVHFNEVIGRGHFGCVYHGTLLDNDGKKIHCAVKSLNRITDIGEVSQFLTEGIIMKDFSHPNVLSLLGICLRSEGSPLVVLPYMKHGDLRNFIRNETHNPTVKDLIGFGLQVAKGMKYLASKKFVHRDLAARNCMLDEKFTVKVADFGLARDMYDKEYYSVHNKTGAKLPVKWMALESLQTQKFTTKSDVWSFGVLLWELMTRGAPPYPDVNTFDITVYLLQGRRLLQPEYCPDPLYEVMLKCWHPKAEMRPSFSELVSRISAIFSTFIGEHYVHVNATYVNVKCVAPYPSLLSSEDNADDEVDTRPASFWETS
So basically: is IC50 under 80 nM? Then class 1. Not under? Then class 0.

compound: C#Cc1n[nH]c2c(-c3cn([C@@H](C)c4ccccc4)c(=O)[nH]c3=O)cc(F)cc12
discrete_label: class 1
//
compound: CC(c1ccccc1)n1cc(-c2cccc3c(F)n[nH]c23)c(=O)[nH]c1=O (centres undefined)
discrete_label: class 0
//
compound: C#Cc1n[nH]c2c(-c3cn(C(C)c4ccccc4)c(=O)[nH]c3=O)cc(F)cc12 (centres undefined)
discrete_label: class 1
//
compound: CC(c1ccccc1)n1cc(-c2c(F)ccc3cn[nH]c23)c(=O)[nH]c1=O (centres undefined)
discrete_label: class 0
//
compound: C[C@@H](c1ccc(F)cc1)n1cc(-c2cc(F)cc3cn[nH]c23)c(=O)[nH]c1=O
discrete_label: class 0
//
compound: C[C@@H](c1ccc(F)cc1)n1cc(-c2cc(F)cc3c(C#N)n[nH]c23)c(=O)[nH]c1=O
discrete_label: class 1
//
compound: C#Cc1n[nH]c2c(-c3cn(C(C)c4ccccn4)c(=O)[nH]c3=O)cc(F)cc12 (centres undefined)
discrete_label: class 1
//
compound: CC(c1ccccc1)n1cc(-c2cccc3c(C#N)n[nH]c23)c(=O)[nH]c1=O (centres undefined)
discrete_label: class 0
//
compound: CC(c1ccc(F)cc1)n1cc(-c2cc(F)cc3cn[nH]c23)c(=O)[nH]c1=O (centres undefined)
discrete_label: class 0

---

method_description: Metabolic stability in Han Wistar rat hepatocytes assessed as intrinsic clearance measured per million cells at 1 uM measured at 0.5 to 2 hrs by LC-MS/MS analysis
Type: ADME, cell-based, Hepatocyte
condition_summary: time 0.5-2 hrs, read-out: CLH
So basically: is hepatocyte CLint at 1 µM under 50 µL/min/1e6 cells? Then True. Not under? Then False.

compound: CC(c1ccccc1)n1cc(-c2ccc3[nH]ccc3c2)c(=O)[nH]c1=O (configuration not stated)
discrete_label: False
//
compound: C#Cc1n[nH]c2c(-c3cn(C(C)c4ccccc4)c(=O)[nH]c3=O)cccc12 (configuration not stated)
discrete_label: True
//
compound: CC(c1ccccc1Cl)n1cc(-c2cc(F)cc(F)c2)c(=O)[nH]c1=O (configuration not stated)
discrete_label: False
//
compound: C#Cc1n[nH]c2c(-c3cn([C@@H](C)c4ccccn4)c(=O)[nH]c3=O)cc(F)cc12
discrete_label: True
//
compound: CC(c1ccccc1)n1cc(-c2cc(F)cc3cn[nH]c23)c(=O)[nH]c1=O (configuration not stated)
discrete_label: True
//
compound: C[C@@H](c1ccccc1)n1cc(-c2cc(F)cc(F)c2)c(=O)[nH]c1=O
discrete_label: False
//
compound: CC(c1ccc(F)cc1)n1cc(-c2cc(F)cc(F)c2)c(=O)[nH]c1=O (configuration not stated)
discrete_label: True
//
compound: CC(c1cccc(-c2cn[nH]c2)c1)n1cc(-c2cc(F)cc(F)c2)c(=O)[nH]c1=O (configuration not stated)
discrete_label: True
//
compound: CC(c1ccccc1)n1cc(-c2c(F)ccc3cn[nH]c23)c(=O)[nH]c1=O (configuration not stated)
discrete_label: True
//
compound: CC(c1ccccc1)n1cc(-c2ncccn2)c(=O)[nH]c1=O (configuration not stated)
discrete_label: True
//
compound: CC(c1cccc(Cl)c1)n1cc(-c2cc(F)cc(F)c2)c(=O)[nH]c1=O (configuration not stated)
discrete_label: False
//
compound: CC(c1ccccn1)n1cc(-c2cc(F)cc3c(C#N)n[nH]c23)c(=O)[nH]c1=O (configuration not stated)
discrete_label: True
//
compound: CC(c1ccccc1)n1cc(-c2ccccc2)c(=O)[nH]c1=O (configuration not stated)
discrete_label: False
//
compound: Cc1n[nH]c2c(-c3cn(C(C)c4ccccc4)c(=O)[nH]c3=O)cccc12 (configuration not stated)
discrete_label: True
//
compound: O=c1[nH]c(=O)n(Cc2ccccc2)cc1-c1cc(F)cc(F)c1
discrete_label: False
//
compound: CC(c1ccc(F)cc1)n1cc(-c2cc(F)cc3c(C#N)n[nH]c23)c(=O)[nH]c1=O (configuration not stated)
discrete_label: True
//
compound: CC(c1ccccc1)n1cc(-c2ccccn2)c(=O)[nH]c1=O (configuration not stated)
discrete_label: False
//
compound: CC(c1ccc(F)cc1)n1cc(-c2cc(F)cc3cn[nH]c23)c(=O)[nH]c1=O (configuration not stated)
discrete_label: True
//
compound: CC(c1ccccc1)n1cc(-c2cc(F)cc(F)c2)c(=O)[nH]c1=O (configuration not stated)
discrete_label: False
//
compound: CC(c1ccccc1)n1cc(-c2cccc3cn[nH]c23)c(=O)[nH]c1=O (configuration not stated)
discrete_label: True

---

target: Hepatocyte growth factor receptor (Homo sapiens)
method_description: Inhibition of wild type c-MET in human NCI-H1993 cells incubated for 4 hrs measured by HTRF assay
Type: cell-based

molecule: C#Cc1n[nH]c2c(-c3cn([C@@H](C)c4ccccc4)c(=O)[nH]c3=O)cc(F)cc12
units_label: nM
result_modifier: =
EC50: 1170
//
molecule: CC(c1ccccn1)n1cc(-c2cc(F)cc3c(C#N)n[nH]c23)c(=O)[nH]c1=O (centres undefined)
units_label: nM
result_modifier: >
EC50: 29800
//
molecule: CC(c1ccc(F)cc1)n1cc(-c2cc(F)cc3c(C#N)n[nH]c23)c(=O)[nH]c1=O (centres undefined)
units_label: nM
result_modifier: =
EC50: 18700
//
molecule: C#Cc1n[nH]c2c(-c3cn(C(C)c4ccccc4)c(=O)[nH]c3=O)cc(F)cc12 (centres undefined)
units_label: nM
result_modifier: =
EC50: 1950

---

method_description: Metabolic stability in human liver microsomes assessed as intrinsic clearance at 1 uM preincubated with NADPH for 8 mins followed by compound addition measured at 0.5 to 30 mins by LC-MS/MS analysis
Format: ADME, Microsome
condition_summary: time 0.5-30 min, read-out: CLH

molecule: CC(c1ccccc1)n1cc(-c2ccccn2)c(=O)[nH]c1=O (stereo not given)
result_modifier: =
microsomal CLint at 1 µM / µL/min/mg: 12.6
//
molecule: CC(c1ccc(F)cc1)n1cc(-c2cc(F)cc3c(C#N)n[nH]c23)c(=O)[nH]c1=O (stereo not given)
result_modifier: <
microsomal CLint at 1 µM / µL/min/mg: 3
//
molecule: CC(c1ccccc1)n1cc(-c2c(F)ccc3cn[nH]c23)c(=O)[nH]c1=O (stereo not given)
result_modifier: =
microsomal CLint at 1 µM / µL/min/mg: 7.35
//
molecule: CC(c1ccc(F)cc1)n1cc(-c2cc(F)cc(F)c2)c(=O)[nH]c1=O (stereo not given)
result_modifier: =
microsomal CLint at 1 µM / µL/min/mg: 17.4
//
molecule: CC(c1ccccc1)n1cc(-c2cc(F)cc(F)c2)c(=O)[nH]c1=O (stereo not given)
result_modifier: =
microsomal CLint at 1 µM / µL/min/mg: 17.8
//
molecule: C#Cc1n[nH]c2c(-c3cn(C(C)c4ccccc4)c(=O)[nH]c3=O)cccc12 (stereo not given)
result_modifier: =
microsomal CLint at 1 µM / µL/min/mg: 12.8
//
molecule: O=c1[nH]c(=O)n(Cc2ccccc2)cc1-c1cc(F)cc(F)c1
result_modifier: =
microsomal CLint at 1 µM / µL/min/mg: 20.6
//
molecule: CC(c1ccc(F)cc1)n1cc(-c2cc(F)cc3cn[nH]c23)c(=O)[nH]c1=O (stereo not given)
result_modifier: =
microsomal CLint at 1 µM / µL/min/mg: 5.61
//
molecule: CC(c1ccccc1)n1cc(-c2cccc3cn[nH]c23)c(=O)[nH]c1=O (stereo not given)
result_modifier: =
microsomal CLint at 1 µM / µL/min/mg: 6.13
//
molecule: CC(c1cccc(-c2c[nH]cn2)c1)n1cc(-c2cc(F)cc(F)c2)c(=O)[nH]c1=O (stereo not given)
result_modifier: =
microsomal CLint at 1 µM / µL/min/mg: 16.2
